target: leukocyte function-associated antigen (LFA-1) (human, UniProt P20701 26-1170; P05107 23-769); test: cell-based or functional assay
Sequence (P20701 26-1170, chain 1 of 2): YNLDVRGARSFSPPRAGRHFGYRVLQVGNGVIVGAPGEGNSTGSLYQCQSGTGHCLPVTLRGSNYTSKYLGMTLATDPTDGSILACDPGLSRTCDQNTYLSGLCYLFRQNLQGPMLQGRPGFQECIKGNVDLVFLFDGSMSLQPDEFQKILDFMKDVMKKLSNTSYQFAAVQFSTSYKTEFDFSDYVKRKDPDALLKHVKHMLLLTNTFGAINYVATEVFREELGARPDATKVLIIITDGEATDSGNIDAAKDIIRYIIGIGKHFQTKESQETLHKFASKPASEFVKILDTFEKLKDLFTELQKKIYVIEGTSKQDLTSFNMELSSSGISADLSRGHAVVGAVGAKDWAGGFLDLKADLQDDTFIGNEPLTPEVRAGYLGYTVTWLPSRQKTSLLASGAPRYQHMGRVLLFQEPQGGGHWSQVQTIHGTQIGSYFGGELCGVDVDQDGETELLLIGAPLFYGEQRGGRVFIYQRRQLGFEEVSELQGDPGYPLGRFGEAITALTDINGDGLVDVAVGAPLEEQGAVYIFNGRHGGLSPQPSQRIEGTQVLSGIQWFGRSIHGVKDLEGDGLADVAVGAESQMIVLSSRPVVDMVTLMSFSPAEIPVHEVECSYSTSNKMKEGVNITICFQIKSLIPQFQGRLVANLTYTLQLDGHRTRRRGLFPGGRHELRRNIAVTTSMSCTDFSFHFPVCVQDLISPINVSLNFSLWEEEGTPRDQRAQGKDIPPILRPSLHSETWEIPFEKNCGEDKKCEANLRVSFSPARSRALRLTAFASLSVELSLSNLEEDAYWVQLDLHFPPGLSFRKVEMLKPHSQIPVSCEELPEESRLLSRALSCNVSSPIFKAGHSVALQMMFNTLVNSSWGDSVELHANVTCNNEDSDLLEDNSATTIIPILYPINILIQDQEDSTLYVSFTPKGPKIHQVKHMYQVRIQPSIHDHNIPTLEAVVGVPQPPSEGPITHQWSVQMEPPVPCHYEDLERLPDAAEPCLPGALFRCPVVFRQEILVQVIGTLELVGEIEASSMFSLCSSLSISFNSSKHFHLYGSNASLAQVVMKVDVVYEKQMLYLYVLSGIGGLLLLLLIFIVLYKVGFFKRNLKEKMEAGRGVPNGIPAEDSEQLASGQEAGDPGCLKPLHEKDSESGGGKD
Sequence (P05107 23-769, chain 2 of 2): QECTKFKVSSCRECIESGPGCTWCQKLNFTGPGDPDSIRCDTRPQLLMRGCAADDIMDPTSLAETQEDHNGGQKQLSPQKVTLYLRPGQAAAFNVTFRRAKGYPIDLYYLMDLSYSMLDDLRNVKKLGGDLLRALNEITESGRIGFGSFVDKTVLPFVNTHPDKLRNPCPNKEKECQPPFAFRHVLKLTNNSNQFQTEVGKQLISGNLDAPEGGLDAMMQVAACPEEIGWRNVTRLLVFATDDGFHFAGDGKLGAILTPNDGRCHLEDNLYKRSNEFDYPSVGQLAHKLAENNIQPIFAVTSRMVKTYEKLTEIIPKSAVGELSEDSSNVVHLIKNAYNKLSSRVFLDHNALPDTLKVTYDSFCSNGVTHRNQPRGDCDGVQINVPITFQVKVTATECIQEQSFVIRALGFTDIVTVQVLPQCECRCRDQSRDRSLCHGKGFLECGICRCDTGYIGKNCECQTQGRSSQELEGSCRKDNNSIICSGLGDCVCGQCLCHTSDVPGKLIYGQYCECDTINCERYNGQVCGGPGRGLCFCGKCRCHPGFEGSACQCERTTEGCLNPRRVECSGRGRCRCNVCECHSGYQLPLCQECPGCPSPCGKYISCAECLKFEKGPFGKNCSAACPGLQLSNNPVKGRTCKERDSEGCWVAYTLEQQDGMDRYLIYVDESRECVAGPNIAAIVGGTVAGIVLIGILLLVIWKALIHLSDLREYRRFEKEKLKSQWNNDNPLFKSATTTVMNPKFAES
Bridge positions count the residues as written; N and C are the ends. Square brackets hold non-standard residues; d marks the D form. Ends that are not written are not given here. Pen = CC(C)(S)[C@H](N)C(=O)O
quantity: Clumping Index

1) [Pen]ETPLPKKELLC (disulfide 1-12; not fully specified) [cIE-C] ... 23 clumping index (0-100)
2) [Pen]PSKVILPRGGC (disulfide 1-12; not fully specified) [cIB-C] ... 61 clumping index (0-100)
3) CLPRGGSVLVTC (disulfide 1-12; not fully specified) [cIB-R] ... 73 clumping index (0-100)
4) DQPKLLGIETPLPKKELLLPGNNRK [IE] ... 63 clumping index (0-100)
5) [Pen]QTSVSPSKVIC (disulfide 1-12; not fully specified) [cIB-L] ... 61 clumping index (0-100)
6) QTSVSPSKVILPRGGSVLVTG [IB] ... 56 clumping index (0-100)
